B1: Pistol ribozyme (parent)
chain: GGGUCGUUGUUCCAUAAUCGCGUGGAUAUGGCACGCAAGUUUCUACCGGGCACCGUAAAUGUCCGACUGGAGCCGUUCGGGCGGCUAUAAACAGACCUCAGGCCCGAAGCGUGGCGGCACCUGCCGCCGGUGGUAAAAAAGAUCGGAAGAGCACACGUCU

variants of: B1; experiment: aptazyme ON/OFF ratio, guanine; higher = stronger switching; co-transcriptional cleavage with and without guanine
measuredParameter: aptazyme ON/OFF ratio
Keep the answer to the number alone.

INSERT INTO measurements (variantnotation, measuredparameter, assayvalue) VALUES
  ('G9A U10G U11C C12A C13A', 'aptazyme ON/OFF ratio', 1.18),
  ('U8G G9A U11C C12U C13U', 'aptazyme ON/OFF ratio', 1.13),
  ('U7A U8A G9C U10C U11A C13A', 'aptazyme ON/OFF ratio', 1.14);

What value of aptazyme ON/OFF ratio has been reported for the following variant? G9U U10C U11A C12A C13U
1.57

What value of aptazyme ON/OFF ratio has been reported for the following variant? U7A U8C G9U U10A U11G C12G C13U
1.18

What value of aptazyme ON/OFF ratio has been reported for the following variant? U7A G9C U10C U11A C12A C13U
1.03

What value of aptazyme ON/OFF ratio has been reported for the following variant? U7C U8C G9C U10C U11C C12G C13U
1.1

What value of aptazyme ON/OFF ratio has been reported for the following variant? U7C U8G U10C U11A C13G
1.16

What value of aptazyme ON/OFF ratio has been reported for the following variant? U8C G9A U11A C12A C13A
1.15

What value of aptazyme ON/OFF ratio has been reported for the following variant? U8A G9C U10G C12U C13U
1.22

What value of aptazyme ON/OFF ratio has been reported for the following variant? U7G U8C G9A U10A U11C C12G C13U
1.09

meta.source: the RNAGym collection of RNA variant scans (doi:10.1021/acssynbio.7b00057)
